Value source: patent EP0255485A2

- Experimental Details: in vitro
- Test Context: mouse, P, Vehicle LA:TEC:PG 20:50:30; Drug Conc. 4.32 mg/ml
Quantity: Papp (×10⁻⁶ cm/s)
The reply should contain only the number, in ×10⁻⁶ cm/s.

Entry CCC(NC(C)C)C(O)c1ccc(O)c2[nH]c(=O)ccc12 (stereo not shown) [Procaterol] has what Papp?
0.547

====

- Experimental Details: in vitro
- Test Context: mouse, PX10^6, LA:PG:TA 20:30:50; 0.5 wt % analgesic, Conc. 5.3 mg/ml
Quantity: Papp
Form entry: enter the amount, then its unit.

Entry CN1CC[C@]23c4c5ccc(O)c4O[C@H]2C(=O)CC[C@@]3(O)[C@H]1C5 has what Papp?
3.5 ×10⁻⁶ cm/s

====

- Experimental Details: in vitro
- Test Context: mouse, P, Solvent System LA:PG:TA 20:30:50; approximate concentration 5 mg/ml
Structures can show the parent of a compound that is named as a salt.
Quantity: Papp (×10⁻⁶ cm/s)
The reply should contain only the number, in ×10⁻⁶ cm/s.

Entry CCC(NC(C)C)C(O)c1ccc(O)c2[nH]c(=O)ccc12 (stereo not shown) [Procaterol Hydrochloride] has what Papp?
0.77

====

- Experimental Details: in vitro
- Test Context: mouse, PX10^6, LA:PG:TA 10:30:60; 0.5 wt % analgesic, Conc. 5.4 mg/ml
Quantity: Papp (×10⁻⁶ cm/s)
The reply should contain only the number, in ×10⁻⁶ cm/s.

Entry CN1CC[C@]23c4c5ccc(O)c4O[C@H]2C(=O)CC[C@@]3(O)[C@H]1C5 has what Papp?
2.7

====

- Experimental Details: in vitro
- Test Context: mouse, Permeability Coefficient (P), 40 % Linoleic Acid in propylene glycol; Conc'n. 43 mg/ml
Quantity: Papp

Entry CC1CC(=O)NN=C1c1ccc(-n2ccnc2)cc1 (stereo not shown) [Compound I Base] has what Papp?
21.8 nm/s

====

- Experimental Details: in vitro
- Test Context: mouse, P, Vehicle Oleic Acid:PG:TA 20:30:50; Drug Conc. 15.89 mg/ml
Quantity: Papp (×10⁻⁶ cm/s)
The reply should contain only the number, in ×10⁻⁶ cm/s.

Entry CCC(NC(C)C)C(O)c1ccc(O)c2[nH]c(=O)ccc12 (stereo not shown) has what Papp?
3

====

- Experimental Details: in vitro
- Test Context: mouse, P, Vehicle Ethyl Linoleate:PG:TA 10:5:85; Drug Conc. 0.855 mg/ml
Quantity: Papp (×10⁻⁶ cm/s)
The reply should contain only the number, in ×10⁻⁶ cm/s.

Entry CCC(NC(C)C)C(O)c1ccc(O)c2[nH]c(=O)ccc12 (stereo not shown) [Procaterol] has what Papp?
3.12

====

- Experimental Details: in vitro
- Test Context: mouse, PX10^6, LA:PG:TA 5:30:65; 0.5 wt % analgesic, Conc. 5.5 mg/ml
Quantity: Papp (×10⁻⁶ cm/s)
The reply should contain only the number, in ×10⁻⁶ cm/s.

Entry CN1CC[C@]23c4c5ccc(O)c4O[C@H]2C(=O)CC[C@@]3(O)[C@H]1C5 has what Papp?
2

====

- Experimental Details: in vitro
- Test Context: mouse, P, Vehicle LA:TEC:PG 10:80:10; Drug Conc. 16.9 mg/ml
Quantity: Papp
Form entry: enter the amount, then its unit.

Entry CCC(NC(C)C)C(O)c1ccc(O)c2[nH]c(=O)ccc12 (stereo not shown) has what Papp?
0.526 ×10⁻⁶ cm/s

====

- Experimental Details: in vitro
- Test Context: mouse, P, Vehicle LA:TA:PG 20:50:30; Procaterol Conc. 40 mg/ml
Quantity: Papp
Form entry: enter the amount, then its unit.

Entry CCC(NC(C)C)C(O)c1ccc(O)c2[nH]c(=O)ccc12 (stereo not shown) has what Papp?
1.1 ×10⁻⁶ cm/s

====

- Experimental Details: in vitro
- Test Context: mouse, P, Vehicle LA:TEC:PG 20:50:30; Drug Conc. 44.7 mg/ml
Quantity: Papp (×10⁻⁶ cm/s)
The reply should contain only the number, in ×10⁻⁶ cm/s.

Entry CCC(NC(C)C)C(O)c1ccc(O)c2[nH]c(=O)ccc12 (stereo not shown) has what Papp?
0.41

====

- Experimental Details: in vitro
- Test Context: mouse, Permeability Coefficient (P), Vehicle LA:TA:PG 20:50:30; Conc'n. 21.57 mg/ml
Quantity: Papp
Form entry: enter the amount, then its unit.

Entry CC1CC(=O)NN=C1c1ccc(-n2ccnc2)cc1 (stereo not shown) has what Papp?
1.68 ×10⁻⁶ cm/s

====

- Experimental Details: in vitro
- Test Context: mouse, Permeability Coefficient (P), 100 % Linoleic Acid; Conc'n. 31.5 mg/ml
Quantity: Papp (nm/s)
The reply should contain only the number, in nm/s.

Entry CC1CC(=O)NN=C1c1ccc(-n2ccnc2)cc1 (stereo not shown) has what Papp?
2.2

====

- Experimental Details: in vitro
- Test Context: mouse, P, Vehicle LA:TEC:PG 10:70:20; Drug Conc. 23.03 mg/ml
Quantity: Papp (×10⁻⁶ cm/s)
The reply should contain only the number, in ×10⁻⁶ cm/s.

Entry CCC(NC(C)C)C(O)c1ccc(O)c2[nH]c(=O)ccc12 (stereo not shown) has what Papp?
0.404
